target: cyanide resistant quinol enzyme of Trypanosoma (Trypanosoma brucei brucei); assay: Respiration inhibition on the cyanide resistant quinol enzyme of Trypanosoma (recombinant enzyme)
Sequence (Q26710 whole entry): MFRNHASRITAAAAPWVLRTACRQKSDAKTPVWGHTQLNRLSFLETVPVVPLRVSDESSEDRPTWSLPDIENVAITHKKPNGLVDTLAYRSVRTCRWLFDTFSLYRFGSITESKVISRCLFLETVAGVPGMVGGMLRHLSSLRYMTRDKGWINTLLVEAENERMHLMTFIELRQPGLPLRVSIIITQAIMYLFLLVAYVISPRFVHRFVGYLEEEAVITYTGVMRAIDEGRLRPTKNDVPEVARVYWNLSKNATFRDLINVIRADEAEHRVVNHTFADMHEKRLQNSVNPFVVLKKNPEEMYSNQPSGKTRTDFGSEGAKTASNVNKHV
Listed here: items and their measured IC50.
Number first, unit second.

Recorded results for 3 compounds are shown here.
{"columns": ["COMPOUND", "STUDY_TARGET", "IC50"],
 "data": [
  ["CCCCCCCCCC/C=C/c1c(O)cc(C)c(C=O)c1O", "cyanide resistant quinol enzyme of Trypanosoma (Trypanosoma brucei brucei)", "16 nM"],
  ["Cc1c(Cl)c(O)c(/C=C/C(C)CCCC(C)C)c(O)c1C=O (racemic)", "cyanide resistant quinol enzyme of Trypanosoma (Trypanosoma brucei brucei)", "1.1 nM"],
  ["CCCCCCCCC(O)c1c(O)cc(C)c(C=O)c1O (stereo not drawn)", "cyanide resistant quinol enzyme of Trypanosoma (Trypanosoma brucei brucei)", "30 nM"]
]}

Kindly state the measured IC50 obtained for CCCCCCCCCC(O)c1c(O)cc(C)c(C=O)c1O (stereo not drawn) with cyanide resistant quinol enzyme of Trypanosoma (Trypanosoma brucei brucei).
35 nM

Observed IC50 on cyanide resistant quinol enzyme of Trypanosoma (Trypanosoma brucei brucei) for CCCCCCCC/C=C/c1c(O)ccc(C=O)c1O [compound 197, 3-(1-Decenyl)-2,4-dihydroxybenzaldehyde] , please.
120 nM

Query the reported IC50 for cyanide resistant quinol enzyme of Trypanosoma (Trypanosoma brucei brucei); item: CCCCCCCCC(O)c1c(O)c(Cl)c(C)c(C=O)c1O (stereo not drawn)
0.5 nM

API: value(readout=IC50, system=cyanide resistant quinol enzyme of Trypanosoma (Trypanosoma brucei brucei)) for record CCCCCCCCCc1c(O)c(Cl)c(C)c(C=O)c1O
0.21 nM

Any idea what IC50 came out for CCCCCCCCCCCC(O)c1c(O)c(Cl)c(C)c(C=O)c1O (stereo not drawn) on cyanide resistant quinol enzyme of Trypanosoma (Trypanosoma brucei brucei)?
0.65 nM

# returns recorded IC50 (system: cyanide resistant quinol enzyme of Trypanosoma (Trypanosoma brucei brucei)) for COc1c(Cl)c(C)c(C=O)c(O)c1C/C=C(\C)CC/C=C(\C)[C@@H]1CC(=O)C(C)(C)O1
4 nM

Tell me reported IC50 for CCCCCCCCCCCC(O)c1c(O)c(Cl)cc(C=O)c1O (stereo not drawn) , tested with cyanide resistant quinol enzyme of Trypanosoma (Trypanosoma brucei brucei).
1.5 nM
